- Test system: MOLT-4
- PROTOCOL: Cytotoxicity against human MOLT4 cells assessed as cellular growth at 10 uM by SRB assay
- Type: functional

| SMILES | Activity / % |
| --- | --- |
| Cc1ccc(S(=O)(=O)NC2=NC(=O)/C(=C\c3ccccc3)S2)cc1 | 86.66 |
| O=C(NCCc1ccccc1)c1[nH]c2ccccc2c1Cl | 70.04 |
| N#Cc1ccc(NC(=O)c2sc3nc4c(cc3c2N)C(=O)CCC4)cc1 | 114.77 |
| Cc1c(OCC(=O)c2ccccc2)ccc2c1oc(=O)c1ccccc12 | 90.5 |
| CC1(C)CC(=O)c2cc3c(N)c(C(=O)Nc4ccc(Cl)cc4)sc3nc2C1 | 104 |
| O=S(=O)(Oc1ccc(-c2cnc3ccccc3n2)cc1)c1ccccc1 | 75.6 |
| Cc1ccccc1NC(=O)c1sc2nc3c(cc2c1N)C(=O)CCC3 | 67.51 |
| COc1ccc2nc(NC(=O)c3ccc(F)cc3)sc2c1 | 87.45 |
| Cc1ccc(CNC(=O)c2[nH]c3ccccc3c2Cl)cc1 | 91.47 |
| Cc1ccc(Cl)cc1NC(=O)c1sc2nc3c(cc2c1N)C(=O)CCC3 | 84.85 |
| O=C(Nc1nc2ccc(Cl)cc2s1)c1ccc(Cl)cc1 | 95.76 |

These measurements were taken from ChEMBL document CHEMBL2202954.
